Data credit: paper PMC4091685

- procedure-text: in vivo
- condition-summary: female, Sprague Dawley, rat, iv, 0.05 mg/kg/day, Cl
measurement-type: clearance (mL/min)
Field format: number, assumed mL/min, no unit text.

Fill in the blank: the reported clearance of CC(C)[C@]12O[C@H]1[C@@H]1O[C@]13[C@]1(O[C@H]1C[C@H]1C4=C(CC[C@@]13C)C(=O)OC4)[C@@H]2O [Triptolide] is ____.
66.7

====

- procedure-text: in vivo
- condition-summary: female, Sprague Dawley, rat, iv, 0.3 mg/kg/day, Cl
measurement-type: clearance
Report as: number unit

Record request: clearance value, item CC(C)[C@]12O[C@H]1[C@@H]1O[C@]13[C@]1(O[C@H]1C[C@H]1C4=C(CC[C@@]13C)C(=O)OC4)[C@@H]2O [Triptolide]
31.7 mL/min

====

- procedure-text: in vivo
- condition-summary: female, Sprague Dawley, rat, iv, 0.15 mg/kg/day, AUC0-inf
measurement-type: AUC0-inf (ng·h/mL)
Reply with just the number (in ng·h/mL).

Look at this compound and give its reported AUC0-inf. CC(C)[C@]12O[C@H]1[C@@H]1O[C@]13[C@]1(O[C@H]1C[C@H]1C4=C(CC[C@@]13C)C(=O)OC4)[C@@H]2O [Triptolide]
72.1

====

- procedure-text: in vivo
- condition-summary: female, Sprague Dawley, rat, iv, 0.3 mg/kg/day, C0
measurement-type: C0 (ng/mL)
Write down the numeric answer in ng/mL and omit the unit.

Sample CC(C)[C@]12O[C@H]1[C@@H]1O[C@]13[C@]1(O[C@H]1C[C@H]1C4=C(CC[C@@]13C)C(=O)OC4)[C@@H]2O [Triptolide] — what was its C0?
436

====

- procedure-text: in vivo
- condition-summary: female, Sprague Dawley, rat, iv, 0.15 mg/kg/day, Vz
measurement-type: Vd
Remember to follow the number with its unit.

# Vd lookup, item CC(C)[C@]12O[C@H]1[C@@H]1O[C@]13[C@]1(O[C@H]1C[C@H]1C4=C(CC[C@@]13C)C(=O)OC4)[C@@H]2O [Triptolide]
1 L

====

- procedure-text: MTD following a single i.v. injection in rats
- condition-summary: male, Sprague Dawley, rat, in vivo, iv
measurement-type: MTD (mg/kg)
Give a bare numeral; the unit mg/kg is implied.

Entry under review: CC(C)[C@]12O[C@H]1[C@@H]1O[C@]13[C@]1(O[C@H]1C[C@H]1C4=C(CC[C@@]13C)C(=O)OC4)[C@@H]2O [Triptolide] . Reported MTD?
0.63

====

- procedure-text: in vivo
- condition-summary: both, Sprague Dawley, rat, iv, T1/2,e Median
measurement-type: half-life (min)
Report only the number, with the unit min understood.

Name the reported half-life value associated with the compound CC(C)[C@]12O[C@H]1[C@@H]1O[C@]13[C@]1(O[C@H]1C[C@H]1C4=C(CC[C@@]13C)C(=O)OC4)[C@@H]2O [Triptolide]
13.2

====

- procedure-text: in vivo
- condition-summary: female, Sprague Dawley, rat, iv, 0.3 mg/kg/day, Cmax
measurement-type: Cmax (ng/mL)
Just the number in ng/mL, nothing appended.

Please give the measured Cmax for this compound: CC(C)[C@]12O[C@H]1[C@@H]1O[C@]13[C@]1(O[C@H]1C[C@H]1C4=C(CC[C@@]13C)C(=O)OC4)[C@@H]2O [Triptolide]
189
